From: ChEMBL document CHEMBL1681672

# METHOD SUMMARY: Antiproliferative activity against human KBVIN cells expressing P-glycoprotein after 3 days by sulforhodamine B assay
# Type: functional
# EXPERIMENTAL SETUP: 72 h, read-out: ED50 (the source's name)
Label key: yes (1) means EC50 under 8 µM; no (0) means EC50 of 8 µM or more.

- CCCC1=C(OC)C(CCC)(CCC)C(=O)/C(=C(O)\C=C\c2ccccc2)C1=O: yes (1)
- CCCOC1=C(CCC)C(=O)/C(=C(O)/C=C/c2ccc(I)cc2)C(=O)C1(CCC)CCC: yes (1)
- CCCOC1=C(CCC)C(=O)/C(=C(O)/C=C/c2ccccc2)C(=O)C1(CCC)CCC: yes (1)
- CCCCOC1=C(CCC)C(=O)/C(=C(O)/C=C/c2ccccc2)C(=O)C1(CCC)CCC: no (0)
- COC1=C(C)C(O)=C(C(=O)/C=C/c2ccccc2)C(=O)C1(C)C: no (0)
- CCCCC1=C(OC)C(CCCC)(CCCC)C(=O)/C(=C(O)\C=C\c2ccccc2)C1=O: no (0)

Enquiry: Item CCCC1=C(OC)C(CCC)(CCC)C(=O)/C(=C(O)\C=C\c2ccc(Br)cc2)C1=O : EC50 beneath 8 µM, strictly?
Return: yes (1)

Enquiry: Consider next the molecule CCCC1(CC=C(C)C)C(=O)C(C(=O)/C=C/c2ccccc2)=C(O)C(CCC)(CCC)C1=O (configuration not stated) in the same way.
Return: yes (1)

Enquiry: Would you mind doing CCCC1=C(OC)C(CCC)(CCC)C(=O)/C(=C(O)\C=C\c2ccc(I)cc2)C1=O as well?
Return: yes (1)

Enquiry: For CCCC1=C(OCC(C)C)C(CCC)(CCC)C(=O)/C(=C(O)\C=C\c2ccccc2)C1=O then?
Return: yes (1)

Enquiry: What about CCCC1=C(OCC)C(CCC)(CCC)C(=O)/C(=C(O)\C=C\c2ccccc2)C1=O ?
Return: yes (1)

Enquiry: Next: COC1=C(CC=C(C)C)C(=O)/C(=C(O)/C=C/c2ccccc2)C(=O)C1(CC=C(C)C)CC=C(C)C
Return: no (0)

Enquiry: Try this molecule next: CCCC1=C(OCCC(C)C)C(CCC)(CCC)C(=O)/C(=C(O)\C=C\c2ccccc2)C1=O
Return: no (0)

Enquiry: Also COC1=C(CCC(C)C)C(=O)/C(=C(O)/C=C/c2ccccc2)C(=O)C1(CCC(C)C)CCC(C)C ?
Return: no (0)

---

# Test system: KB
# METHOD SUMMARY: Antiproliferative activity against human KB cells after 3 days by sulforhodamine B assay
# Format: functional
# EXPERIMENTAL SETUP: 72 h, read-out: ED50 (the source's name)
READOUT LABEL: EC50 (µM)
Answer with a number only, understood to be in µM.

• COC1=C(CC=C(C)C)C(=O)/C(=C(O)/C=C/c2ccccc2)C(=O)C1(CC=C(C)C)CC=C(C)C = 13.3
• CCCCOC1=C(CCC)C(=O)/C(=C(O)/C=C/c2ccccc2)C(=O)C1(CCC)CCC = 8
• CCCC1=C(OCC)C(CCC)(CCC)C(=O)/C(=C(O)\C=C\c2ccccc2)C1=O = 6.4
• CCCOC1=C(CCC)C(=O)/C(=C(O)/C=C/c2ccccc2)C(=O)C1(CCC)CCC = 2.7
• COC1=C(CCC(C)C)C(=O)/C(=C(O)/C=C/c2ccccc2)C(=O)C1(CCC(C)C)CCC(C)C = 17.5

Enquiry: Form entry - test system: KB; read-out: EC50; compound: COC1=C(CC(C)C)C(=O)/C(=C(O)/C=C/c2ccccc2)C(=O)C1(CC(C)C)CC(C)C
Return: 7.9

Enquiry: Let us now turn to CCCC1=C(OC)C(CCC)(CCC)C(=O)/C(=C(O)\C=C\c2ccc(I)cc2)C1=O
Return: 1.5

Enquiry: What do you have for CCCC1=C(OC)C(CCC)(CCC)C(=O)/C(=C(O)\C=C\c2ccccc2)C1=O ?
Return: 4.6

Enquiry: Then this compound: CCCOC1=C(CCC)C(=O)/C(=C(O)/C=C/c2ccc(I)cc2)C(=O)C1(CCC)CCC
Return: 6.4

Enquiry: Ok, now CC[C@]1(O)C[C@H]2CN(CCc3c([nH]c4ccccc34)[C@@](C(=O)OC)(c3cc4c(cc3OC)N(C=O)[C@H]3[C@@](O)(C(=O)OC)[C@H](OC(C)=O)[C@]5(CC)C=CCN6CC[C@]43[C@@H]65)C2)C1
Return: 0.0024

Enquiry: Similarly, CCCCC1=C(OC)C(CCCC)(CCCC)C(=O)/C(=C(O)\C=C\c2ccccc2)C1=O ?
Return: 7

Enquiry: Check CCCC1(CC=C(C)C)C(=O)C(C(=O)/C=C/c2ccccc2)=C(O)C(CCC)(CCC)C1=O (configuration not stated) too.
Return: 8.2
